Source: patent US20230372448A1

# Target Of Assay: T1, human GIP receptor (human, UniProt P48546 22-466)
# T1 sequence (looked up): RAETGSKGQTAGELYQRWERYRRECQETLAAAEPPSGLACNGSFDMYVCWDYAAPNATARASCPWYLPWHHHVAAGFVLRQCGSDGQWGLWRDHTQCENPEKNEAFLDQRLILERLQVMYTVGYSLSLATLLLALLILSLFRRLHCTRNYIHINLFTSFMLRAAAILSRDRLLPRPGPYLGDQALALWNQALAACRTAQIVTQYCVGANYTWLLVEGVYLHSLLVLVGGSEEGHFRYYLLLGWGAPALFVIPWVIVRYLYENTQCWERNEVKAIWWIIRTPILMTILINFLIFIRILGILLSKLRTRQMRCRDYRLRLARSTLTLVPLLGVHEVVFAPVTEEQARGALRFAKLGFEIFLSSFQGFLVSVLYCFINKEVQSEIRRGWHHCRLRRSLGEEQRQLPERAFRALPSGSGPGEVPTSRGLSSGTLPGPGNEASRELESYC
# Assay Method Text: cell-based or functional assay
Positions of bridges follow the written chain, without caps; N, C: chain ends. Non-standard residues stand in square brackets, D forms with d. No end group written: not given here. *: point of attachment. Acetyl(2-(4-imidazolyl)) = O=C(Cc1c[nH]cn1)*; Aib = CC(C)(N)C(=O)O
Each entry below carries its reported In vitro activity (%) compared with native peptide: vs GIP.
Provide the reading as a plain figure in %.

As a guide, the following entries are already answered.
[[record]]
binder = "Y[Aib]QGTFTSDYSKYLDEKAAKEFVQWLLDHHPSSGQPPPSC (bridge 16-20; not fully specified) [triple agonist of SEQ ID NO: 75]"
recorded_measurement = 18

[[record]]
binder = "{Acetyl(2-(4-imidazolyl))}-[Aib]QGTFTSDYSIAMDEIHQKDFVNWLLAQKC (bridge 15-19; not fully specified) [triple agonist of SEQ ID NO: 92]"
recorded_measurement = 0.4

[[record]]
binder = "{Acetyl(2-(4-imidazolyl))}-[Aib]QGTFTSDYSKYLDECRAKEFVQWLLDHHPSSGQPPPS (bridge 15-19; not fully specified) [triple agonist of SEQ ID NO: 73]"
recorded_measurement = 3


Then this binder:
Query: # In vitro activity (%) compared with native peptide: vs GIP lookup, item H[Aib]QGTFTSDYSKCLDEKRAKEFVQWLLDHHPSSGQPPPS (bridge 16-20; not fully specified) [triple agonist of SEQ ID NO: 65]
Response: 11.6
